Measured melting point, listed per entry for reference.

Item CN1CCCN(c2ccc3oc(-c4cccnc4)cc(=O)c3c2)CC1 has what recorded melting point?
136 to 138 °C

Fill in: melting point of C[C@@H]1CN(c2ccc3oc(-c4cn5ccccc5n4)cc(=O)c3c2)CCN1 is ___
210 to 215 °C

State the recorded melting point for this entry: CCN1CCN(c2ccc3oc(-c4cccnc4)cc(=O)c3c2)CC1
140 to 142 °C

Given the compound COc1ccc(-c2cc(=O)c3cc(N4CCN[C@H](C)C4)ccc3o2)cn1 , what is its reported melting point?
198 to 200 °C

Report melting point for Cc1cn2cc(-c3cc(=O)c4cc(N5CCN[C@@H](C)C5)ccc4o3)nc2cn1 please.
212 to 216 °C

* * *

readout.label: melting point

Form field: reported melting point of CC(C)Oc1ccc(-c2cc(=O)c3cc(N4CCN[C@@H](C)C4)ccc3o2)cc1
128 to 130 °C

I'd like to know its melting point. The compound in question is COc1ccc(-c2cc(=O)c3cc(N4CCN[C@@H](C)C4)ccc3o2)cc1OC(F)(F)F
142 to 146 °C

Which melting point value belongs to COc1ccc(-c2cc(=O)c3cc(N4CCN[C@@H](C)C4)ccc3o2)cn1 ?
196 to 200 °C

I would be grateful if you could share the reported melting point for C[C@@H]1CN(c2ccc3oc(-c4cccnc4)cc(=O)c3c2)C[C@H](C)N1 .
148 to 150 °C

Would you kindly share the measured melting point for COc1ccc(-c2cc(=O)c3cc(N4CCNCC4)ccc3o2)cc1OC(F)(F)F ?
104 to 106 °C

Record request: melting point value, item O=c1cc(-c2cn3ccccc3n2)oc2ccc(N3CCNCC3)cc12
207 to 211 °C

What melting point value was documented for this compound, O=c1cc(-c2cn3ccccc3n2)oc2ccc(N3CCCNCC3)cc12 ?
198 to 200 °C

This collection of values is drawn from patent US9914722B2.
